compounds and their reported Maximum Activity compared to TSH
Molecular target: human TSHR (Homo sapiens)
Construct: expressed in transfected cells
Sequence (P16473 21-764): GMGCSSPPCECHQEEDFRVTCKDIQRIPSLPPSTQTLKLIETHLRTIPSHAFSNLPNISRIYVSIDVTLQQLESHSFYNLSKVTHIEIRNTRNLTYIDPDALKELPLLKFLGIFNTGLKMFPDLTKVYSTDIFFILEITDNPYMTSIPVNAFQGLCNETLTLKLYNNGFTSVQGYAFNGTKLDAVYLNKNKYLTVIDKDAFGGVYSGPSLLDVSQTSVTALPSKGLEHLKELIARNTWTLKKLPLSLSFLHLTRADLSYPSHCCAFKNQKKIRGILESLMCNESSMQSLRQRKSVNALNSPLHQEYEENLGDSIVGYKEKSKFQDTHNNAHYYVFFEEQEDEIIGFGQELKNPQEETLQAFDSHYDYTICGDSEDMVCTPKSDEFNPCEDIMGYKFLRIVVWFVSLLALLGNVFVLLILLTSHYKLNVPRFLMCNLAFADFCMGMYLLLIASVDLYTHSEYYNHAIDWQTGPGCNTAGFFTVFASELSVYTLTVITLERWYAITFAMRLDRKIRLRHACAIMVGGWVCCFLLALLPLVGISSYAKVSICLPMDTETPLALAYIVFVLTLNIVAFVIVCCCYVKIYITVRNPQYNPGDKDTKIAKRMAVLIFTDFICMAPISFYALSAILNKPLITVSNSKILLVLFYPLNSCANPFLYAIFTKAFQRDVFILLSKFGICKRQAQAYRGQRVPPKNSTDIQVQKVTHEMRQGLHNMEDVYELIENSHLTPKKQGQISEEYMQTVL
Assay: Homogeneous Time Resolved Fluorescence (HTRF) cAMP assay, TSHR cell line
Type: cell-based
Conditions: 100% activity = response of 30 mU/ml TSH, 0% = DMSO control; in %
observation-type: Maximum Activity compared to TSH

> print(dat)
                                    compound          target.under.test                  observation.type  result.value
 1  COc1ccc(CN(Cc2ccccc2)C(=O)c2ccccc2O)cc1 [Structure 189]  human TSHR (Homo sapiens)  Maximum Activity compared to TSH         24.00
 2  COc1ccc(OCc2cc(C3Nc4ccccc4C(=O)N3Cc3ccccc3)ccc2OC)cc1 (stereo not shown)  human TSHR (Homo sapiens)  Maximum Activity compared to TSH         24.00
 3  COc1ccc(CN(Cc2ccccc2)C(=O)c2ccccc2)cc1COc1ccc(NC(C)=O)cc1 [Structure 5]  human TSHR (Homo sapiens)  Maximum Activity compared to TSH        174.77
 4  COc1ccc(C(=O)N(Cc2ccco2)Cc2ccco2)c(O)c1 [Structure 121]  human TSHR (Homo sapiens)  Maximum Activity compared to TSH         38.00
 5  COc1ccc(-c2nc3ccccc3c(=O)n2Cc2ccccc2)cc1COc1ccc(NC(C)=O)cc1 [Structure 97]  human TSHR (Homo sapiens)  Maximum Activity compared to TSH        132.18
 6  COc1ccc(C2Nc3ccccc3C(=O)N2Cc2ccccc2)cc1COc1ccc(NC(C)=O)cc1 (single isomer, unassigned) [Structure 62]  human TSHR (Homo sapiens)  Maximum Activity compared to TSH        241.92
 7  COc1ccc(CN(Cc2ccccc2)C(=O)Nc2ccccc2)cc1COc1ccc(NC(C)=O)cc1 [Structure 215]  human TSHR (Homo sapiens)  Maximum Activity compared to TSH         20.00
 8  COc1ccc(-c2nc3ccccc3c(=O)n2Cc2ccccc2)cc1COc1ccc(NC(C)=O)cc1 [Structure 52]  human TSHR (Homo sapiens)  Maximum Activity compared to TSH        104.78
 9  COc1ccc(C2Nc3ccccc3C(=O)N2Cc2cccc(-c3ccccc3)c2)cc1COc1ccc(NC(C)=O)cc1 (stereo not shown) [Structure 13]  human TSHR (Homo sapiens)  Maximum Activity compared to TSH        103.29
10  COc1ccc(-c2nc3ccccc3c(=O)n2Cc2ccccc2)cc1COc1ccc(NC(C)=O)cc1 [Structure 64]  human TSHR (Homo sapiens)  Maximum Activity compared to TSH         70.53
11  COc1ccc(C2Nc3ccccc3C(=O)N2Cc2ccccc2)cc1COc1ccc(NC(C)=O)cc1 (single isomer, unassigned) [Structure 25]  human TSHR (Homo sapiens)  Maximum Activity compared to TSH        207.56
12  COc1ccc(CN(Cc2ccccc2)C(=O)c2ccccc2O)cc1COc1ccc(NC(C)=O)cc1  human TSHR (Homo sapiens)  Maximum Activity compared to TSH         32.00
13  COc1ccc(CN(Cc2ccccc2)C(=O)c2ccccc2)cc1COc1ccc(NC(C)=O)cc1 [Structure 31]  human TSHR (Homo sapiens)  Maximum Activity compared to TSH        153.40
14  COc1ccc(C2Nc3ccccc3C(=O)N2Cc2ccc(CNC(=O)CO)cc2)cc1COc1ccc(NC(C)=O)cc1 (stereo not shown)  human TSHR (Homo sapiens)  Maximum Activity compared to TSH         69.13
15  COc1ccc(-c2nc3ccccc3c(=O)n2Cc2ccc(CNC(=O)CO)cc2)cc1COc1ccc(NC(C)=O)cc1  human TSHR (Homo sapiens)  Maximum Activity compared to TSH         36.00
16  COc1ccc(CN(Cc2ccccc2)C(=O)c2ccc(OC)cc2O)cc1 [Structure 136]  human TSHR (Homo sapiens)  Maximum Activity compared to TSH         37.00
17  O=C(c1ccccc1O)N(Cc1ccccc1)Cc1ccccc1 [Structure 194]  human TSHR (Homo sapiens)  Maximum Activity compared to TSH         27.50
18  COc1ccc(C2Nc3ccccc3C(=O)N2Cc2ccco2)cc1COc1ccc(NC(C)=O)cc1 (stereo not shown) [Structure 8]  human TSHR (Homo sapiens)  Maximum Activity compared to TSH        115.96
19  COc1ccc(C2Nc3ccccc3C(=O)N2Cc2ccco2)cc1COc1ccc(NC(C)=O)cc1 (stereo not shown) [Structure 89]  human TSHR (Homo sapiens)  Maximum Activity compared to TSH        129.12
20  COc1ccc(C2Nc3ccccc3C(=O)N2Cc2ccccc2)cc1COc1ccc(NC(C)=O)cc1 (single isomer, unassigned) [Structure 56]  human TSHR (Homo sapiens)  Maximum Activity compared to TSH        110.90
21  COc1cccc(CN2C(=O)c3ccccc3NC2c2ccc(OC)c(COc3ccc(NC(C)=O)cc3)c2)c1 (stereo not shown) [Structure 18]  human TSHR (Homo sapiens)  Maximum Activity compared to TSH        215.89
22  COc1ccc(C2Nc3ccccc3C(=O)N2Cc2ccco2)cc1COc1ccc(NC(C)=O)cc1 (stereo not shown) [Structure 42]  human TSHR (Homo sapiens)  Maximum Activity compared to TSH        131.51
23  COc1ccc(-c2nc3ccccc3c(=O)n2Cc2ccccc2)cc1COc1ccc(NC(C)=O)cc1 [Structure 17]  human TSHR (Homo sapiens)  Maximum Activity compared to TSH         93.46
24  COc1ccc(C2Nc3ccccc3C(=O)N2Cc2cccc3ccccc23)cc1COc1ccc(NC(C)=O)cc1 (stereo not shown) [Structure 288]  human TSHR (Homo sapiens)  Maximum Activity compared to TSH         20.50
25  COc1ccc(CNc2ccccc2C(=O)NCc2ccccc2)cc1COc1ccc(NC(C)=O)cc1  human TSHR (Homo sapiens)  Maximum Activity compared to TSH         30.50
26  COc1ccc(C2Nc3ccccc3C(=O)N2Cc2ccco2)cc1COc1ccc(NC(C)=O)cc1 (stereo not shown) [Structure 91]  human TSHR (Homo sapiens)  Maximum Activity compared to TSH         88.07
27  COc1ccc(C2Nc3ccccc3C(=O)N2Cc2cccc(Cl)c2)cc1COc1ccc(NC(C)=O)cc1 (stereo not shown) [Structure 12]  human TSHR (Homo sapiens)  Maximum Activity compared to TSH         91.43
28  COc1ccc(C2Oc3ccccc3C(=O)N2Cc2ccccc2)cc1COc1ccc(NC(C)=O)cc1 (stereo not shown) [Structure 78]  human TSHR (Homo sapiens)  Maximum Activity compared to TSH         66.16
29  COc1ccc(C(=O)N(Cc2ccco2)Cc2cccs2)c(O)c1 [Structure 112]  human TSHR (Homo sapiens)  Maximum Activity compared to TSH         60.92
30  COc1ccc(C2Nc3ccc(NC(=O)COC(C)=O)cc3C(=O)N2Cc2ccccc2)cc1COc1ccc(NC(C)=O)cc1 (stereo not shown) [Structure 66]  human TSHR (Homo sapiens)  Maximum Activity compared to TSH         64.52
31  COc1ccc(CN(Cc2ccccc2)C(=O)c2ccc(O)cc2)cc1COc1ccc(NC(C)=O)cc1 [Structure 104]  human TSHR (Homo sapiens)  Maximum Activity compared to TSH        122.31
